Record form. Attribute: IC50. Fill in for each entry.
Target: hNET transporter (Homo sapiens, UniProt P23975)
Construct: expressed in transfected cells; membranes prepared
Sequence (P23975 whole entry): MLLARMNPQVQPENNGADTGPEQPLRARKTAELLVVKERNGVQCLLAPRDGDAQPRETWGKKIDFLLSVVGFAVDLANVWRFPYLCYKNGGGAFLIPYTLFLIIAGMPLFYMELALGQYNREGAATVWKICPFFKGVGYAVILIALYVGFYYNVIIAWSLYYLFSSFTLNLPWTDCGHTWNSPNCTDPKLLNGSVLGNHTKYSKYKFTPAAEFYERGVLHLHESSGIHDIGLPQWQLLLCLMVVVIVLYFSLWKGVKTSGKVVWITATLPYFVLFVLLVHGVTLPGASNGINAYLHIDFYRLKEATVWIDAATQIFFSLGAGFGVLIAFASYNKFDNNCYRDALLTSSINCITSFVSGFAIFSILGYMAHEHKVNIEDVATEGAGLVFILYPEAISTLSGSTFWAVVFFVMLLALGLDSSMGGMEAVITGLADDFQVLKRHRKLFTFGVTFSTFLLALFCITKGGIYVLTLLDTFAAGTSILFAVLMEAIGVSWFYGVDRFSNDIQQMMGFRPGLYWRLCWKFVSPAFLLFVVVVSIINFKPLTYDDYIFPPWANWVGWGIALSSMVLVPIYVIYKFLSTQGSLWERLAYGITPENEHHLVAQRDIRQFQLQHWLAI
Test: Human norepinephrine transporter (hNET) scintillation proximity assay, competition with [3H]-Nisoxetine
Format: binding
Settings: Table 1; read-out: pIC50 NET (converted)
Protocol: This assay was used to determine the affinity of ligands for the hNET transporter by competition with [^3H]-Nisoxetine. As in the hSERT assay of the above example, receptor-containing membranes were pre-coupled to the SPA beads and the binding of the appropriate radioligand to the transporter was measured. […] The % inhibition was calculated for each compound tested [(Compound CPM at maximum concentration-Non-Specific CPM)/Total CPM*100]. […]
Number in nM, nothing else.

What value of measured IC50 is listed for COC(C)(C)CCC1(C(=O)c2cc(F)c3[nH]ccc3c2)CCNC1 (centres unmarked) ?
4.79

Try this compound too: CCCC1(C(=O)c2ccc(Cl)c(OC(F)(F)F)c2)CCNC1 (centres unmarked)
302

Try this compound too: CC(C)(C)CCC1(C(=O)c2ccc(Cl)c(OCc3ccccc3)c2)CCNC1 (centres unmarked)
363

Try this compound too: CCCC1(C(=O)c2ccc(Cl)c(N(C)c3ccccc3)c2)CCNCC1
162

Try this compound too: CCCC1(C(=O)c2ccc(Cl)cc2Oc2ccccc2)CCNCC1
27.5

Data origin, for the record: patent US20090318493A1
